# subjectOfTest: inactive ERK2 (unphosphorylated Mouse ERK2 protein) (Mus musculus (Mouse))
# protocolDetails: Coupled ERK2 (cERK) assay, coupled MEK1/ERK2 IMAP assay
# measurementParameters: 30 μM ATP
readout: log10 IC50 (log10 of the value in µM)
Record value = log10 of IC50 given in µM.

Guide cases for log10 IC50, answers given:
> print(dat)
                                   compound    val
1  CC(c1ccccc1)N1CCC[C@@H](NC(=O)c2ccc3[nH]nc(-c4ccncc4)c3c2)C1 (stereo partly drawn)  -0.12
2  O=C(NC1CCCN(Cc2ccccc2F)C1)c1ccc2[nH]nc(-c3ccncc3)c2c1 (stereo not drawn)  -1.84
3  O=C(N[C@H]1CCCN(Cc2ccccc2F)C1)c1ccc2[nH]nc(-c3ccncc3)c2c1  -0.78
4  O=C(NC1CCCN(Cc2ccccc2)C1)c1ccc2[nH]nc(-c3ccc4c(c3)CCO4)c2c1 (stereo not drawn)  -0.76
5  O=C(N[C@@H]1CCCN(Cc2ccccc2)C1)c1ccc2[nH]nc(-c3ccncc3)c2c1  -2.54
6  O=C(NC1CCCN(Cc2ccccc2F)C1)c1ccc2[nH]nc(-c3ccc4c(c3)CCO4)c2c1 (stereo not drawn)  -0.64
7  CN1CC(NC(=O)c2ccc3[nH]nc(-c4ccncc4)c3c2)CC(c2ccccc2)C1 (stereo not drawn) [drawing 158]  -2.13
8  CC(C)Oc1ccc(-c2n[nH]c3ccc(C(=O)NC4CCCN(Cc5ccccc5F)C4)cc23)cn1 (stereo not drawn)  -0.51

Then there is this compound:
# log10 IC50 lookup, item O=C(N[C@@H]1CCCN(Cc2ccccc2F)C1)c1ccc2[nH]nc(-c3ccc4c(c3)CCO4)c2c1 -1.31

---

# subjectOfTest: fully phosphorylated, mouse aERK2 enzyme (Mus musculus (Mouse))
# protocolDetails: Active ERK2 (aERK) IMAP-FP assay, condition 2
# Assay type: biochemical
# measurementParameters: aERK assay condition 2, 30 uM ATP; read-out: aERK IC50
readout: pIC50
Please express pIC50 as -log10 of the molar concentration.

The cases that follow already have their pIC50 on record.
> print(dat)
                                   compound  readout   val
1  COc1ccc(N(C)C(=O)[C@@H]2CC[C@@H](NC(=O)c3ccc4[nH]nc(-c5ccnc(C)c5)c4c3)CN2Cc2c(F)cccc2OC)cc1    pIC50  8.24
2  CNC(=O)C(c1ccccc1F)N1CCC[C@@H](NC(=O)c2ccc3[nH]nc(-c4ccncc4)c3c2)C1 (single isomer, unassigned) [drawing 501]    pIC50  6.76
3  CNC(=O)C(c1c(F)cccc1F)N1CCC[C@@H](NC(=O)c2ccc3[nH]nc(-c4ccncc4)c3c2)C1 (single isomer, unassigned) [drawing 505]    pIC50  6.35
4  COC(=O)[C@@H](c1c(F)cccc1F)N1CCC[C@@H](NC(=O)c2ccc3[nH]nc(-c4ccncc4)c3c2)C1    pIC50  5.66
5  O=C(N[C@@H]1CCCN(CC2CC2)C1)c1ccc2[nH]nc(-c3ccncc3)c2c1    pIC50  6.69
6  COc1cccc(F)c1CN1C[C@H](NC(=O)c2ccc3[nH]nc(-c4ccnc(C)c4)c3c2)CC[C@H]1C(=O)Nc1cccnc1    pIC50  8.39

Now for another entry.
Looking for the measured pIC50 of CN(C)C(=O)C(c1c(F)cccc1F)N1CCC[C@@H](NC(=O)c2ccc3[nH]nc(-c4ccncc4)c3c2)C1 (single isomer, unassigned) [drawing 508] , can you help? 6.94

---

For UniProt:P63085, measured log10(IC50) is reported for the entries below.
Kindly note that the scale is log10 and the underlying IC50 is in nM.

Use the examples below as a reference point.
> print(dat)
                                  cpdsmiles   val
1  CN1CC[C@@H](c2ccccc2)[C@H](NC(=O)c2ccc3[nH]nc(-c4ccc5c(c4)CCO5)c3c2)C1  2.07
2  O=C(N[C@@H]1CCCN(Cc2c(F)cccc2F)C1)c1ccc2[nH]nc(-c3ccc4c(c3)CCO4)c2c1  2.24
3  CC(C)Oc1ccc(-c2n[nH]c3ccc(C(=O)N[C@@H]4CCCN(Cc5ccccc5F)C4)cc23)cn1  1.89
4  CC(C)C(NC(=O)[C@@H]1CC[C@@H](NC(=O)c2ccc3[nH]nc(-c4ccncc4)c3c2)CN1Cc1ccccc1)C(C)C  2.42
5  O=C(N[C@@H]1CCCN(Cc2ccccc2F)C1)c1ccc2[nH]nc(-c3ccnc(C(F)(F)F)c3)c2c1  2.71
6  CC(C)Oc1ccc(-c2n[nH]c3ccc(C(=O)N[C@@H]4CNCC[C@H]4c4ccccc4)cc23)cc1  1.70
7  COc1cccc(F)c1CN1CCC[C@@H](NC(=O)c2ccc3[nH]nc(-c4ccc5nc(C)sc5c4)c3c2)C1  1.89

Consider now this further compound.
Item under review: Cc1nc2ccc(-c3n[nH]c4ccc(C(=O)N[C@@H]5C[C@H](Cc6c(F)cccc6F)CN(C)C5)cc34)cn2n1 . Reported log10(IC50)? 0.16

---

Recorded pIC50 for the following compounds
# subjectOfTest: fully phosphorylated, active Mouse ERK2 protein (Mus musculus (Mouse), UniProt P63085)
# Sequence (P63085 whole entry): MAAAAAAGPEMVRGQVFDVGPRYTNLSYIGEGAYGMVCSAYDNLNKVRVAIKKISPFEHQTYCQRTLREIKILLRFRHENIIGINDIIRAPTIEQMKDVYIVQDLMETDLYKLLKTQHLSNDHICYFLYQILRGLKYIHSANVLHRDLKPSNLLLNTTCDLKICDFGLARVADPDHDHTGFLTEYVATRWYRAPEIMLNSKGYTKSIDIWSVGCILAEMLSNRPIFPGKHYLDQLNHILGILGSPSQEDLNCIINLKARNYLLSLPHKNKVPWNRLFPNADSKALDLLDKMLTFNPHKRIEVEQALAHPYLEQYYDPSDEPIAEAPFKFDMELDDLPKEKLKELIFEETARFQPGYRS
Reminder that pIC50 is minus the log10 of a molar concentration.

In the examples that follow, each entry is paired with its recorded pIC50.
> print(dat)
                                   compound                             subjectoftest   val
1  COc1cccc(F)c1CN1CCC(O)C(NC(=O)c2ccc3[nH]nc(-c4ccc5nccn5c4)c3c2)C1 (stereo not shown)  fully phosphorylated, active Mouse ERK2 protein (Mus musculus (Mouse), UniProt P63085)  7.38
2  Cc1cc(-c2n[nH]c3ccc(C(=O)NC4CC(Cc5c(F)cccc5F)CN(C)C4)cc23)ccn1 (stereo not shown)  fully phosphorylated, active Mouse ERK2 protein (Mus musculus (Mouse), UniProt P63085)  8.32

Fill in the recorded pIC50 for this compound, with fully phosphorylated, active Mouse ERK2 protein (Mus musculus (Mouse), UniProt P63085) as test system: O=C(N[C@@H]1CCCN(Cc2c(F)cccc2F)C1)c1ccc2[nH]nc(-c3ccnc(Cl)c3)c2c1 7.21

fully phosphorylated, active Mouse ERK2 protein (Mus musculus (Mouse), UniProt P63085) / pIC50 / Cc1cc(-c2n[nH]c3ccc(C(=O)N[C@@H]4CCCN(Cc5scnc5C)C4)cc23)ccn1 : value? 6.06

# query: pIC50 | item COc1cccc(F)c1CN1C[C@@H](NC(=O)c2ccc3[nH]nc(-c4ccc5nccn5c4)c3c2)CCC1=O | system: fully phosphorylated, active Mouse ERK2 protein (Mus musculus (Mouse), UniProt P63085) 6.18

Which pIC50 is reported with fully phosphorylated, active Mouse ERK2 protein (Mus musculus (Mouse), UniProt P63085) for this entry: COc1cccc(F)c1CN1C[C@@H](C)C[C@@H](NC(=O)c2ccc3[nH]nc(-c4ccc5nccn5c4)c3c2)C1 ? 8.23

Tell me reported pIC50 for COc1cccc(F)c1CN1C[C@H](NC(=O)c2ccc3[nH]nc(-c4ccc5nccn5c4)c3c2)C[C@H](C(F)(F)F)C1 [drawing 317] , tested with fully phosphorylated, active Mouse ERK2 protein (Mus musculus (Mouse), UniProt P63085). 7.75

Missing value: pIC50, fully phosphorylated, active Mouse ERK2 protein (Mus musculus (Mouse), UniProt P63085), entry COc1cccc(F)c1CN1CCC[C@@H](NC(=O)c2ccc3[nH]nc(-c4ccc5nc(C)nn5c4)c3c2)C1 . Fill in? 7.65

---

# subjectOfTest: ERK protein (Mus musculus, UniProt P63085)
# protocolDetails: TdF (Temperature Dependence Fluorescence, thermal shift) assay for ERK
# Type: binding
# measurementParameters: read-out: Kd TdF, 3 μM ERK protein, uncertainty estimated ±50%
readout: pKd
Hey, just a heads up that pKd is the negative log base 10 of the concentration in molar.

Endpoint output: pKd of Cc1cc(-c2n[nH]c3ccc(C(=O)N[C@@H]4CCCN(CCc5ccccc5C(F)(F)F)C4)cc23)ccn1 . Value? 8.66

---

# subjectOfTest: ERK protein (Mus musculus)
# protocolDetails: TdF (Temperature Dependence Fluorescence, thermal shift) assay for ERK
# Assay type: binding
# measurementParameters: 3 μM ERK protein, uncertainty estimated ±50%, read-out: Kd TdF
Label satisfied when Kd < 1 nM; otherwise not satisfied.

The examples below pair each entry with its known result.
> print(dat)
                                   compound      classname
1  O=C(NC1CCCCNC1=O)c1ccc2[nH]nc(-c3ccncc3)c2c1 (stereo not shown)  not satisfied
2  COc1ccccc1CN1CCC[C@@H](NC(=O)c2ccc3[nH]nc(-c4ccc(O)c(NC(C)=O)c4)c3c2)C1  not satisfied
3  Cc1cc(-c2n[nH]c3ccc(C(=O)N[C@@H]4CCCN(Cc5cc6ccccc6o5)C4)cc23)ccn1  not satisfied

Determine whether this compound shows Kd lower than 1 nM (ties excluded): COc1cccc(F)c1CN1C[C@H](C)C[C@@H](NC(=O)c2ccc3[nH]nc(-c4ccnc(C)c4)c3c2)C1 not satisfied

Item Cc1cc(-c2n[nH]c3ccc(C(=O)N[C@@H]4CCCN(C(C)c5ccccc5)C4)cc23)ccn1 (stereo partly shown) : Kd beneath 1 nM, strictly? not satisfied
